# TEST: Ratio of hypoglycemic activity in mice was tested on day 7.
# Type: functional
Please provide measured Ratio for the entries that follow.

A selection of reference data follows.
{"columns": ["COMPOUND", "MEASUREMENT TYPE", "OBSERVED MEASUREMENT"],
 "data": [
  ["CCCCCCCCCCCCOc1cc(O)c2c(=O)cc(-c3ccccc3)oc2c1", "Ratio", 81.9],
  ["CCCCOc1cc(O)c2c(=O)cc(-c3ccccc3)oc2c1", "Ratio", 46.3],
  ["Cc1ccc(C(=O)Oc2cc(O)c3c(=O)cc(-c4ccccc4)oc3c2)cc1", "Ratio", 56.4],
  ["O=C(Oc1cc(O)c2c(=O)cc(-c3ccccc3)oc2c1)c1ccc(F)cc1", "Ratio", 79.3],
  ["COc1ccc(/C=C/C(=O)Oc2cc(O)c3c(=O)cc(-c4ccccc4)oc3c2)cc1", "Ratio", 70],
  ["COc1cc(OC)c2c(=O)cc(-c3ccccc3)oc2c1", "Ratio", 89.9],
  ["CCCOc1cc(OCCC)c2c(=O)cc(-c3ccccc3)oc2c1", "Ratio", 64],
  ["CC(=O)Oc1cc(OC(C)=O)c2c(=O)cc(-c3ccccc3)oc2c1 [CHRYSIN DIACETATE]", "Ratio", 72.4],
  ["O=C(Cc1ccccc1)Oc1cc(O)c2c(=O)cc(-c3ccccc3)oc2c1", "Ratio", 103.9]
]}

Consider the additional compound presented here.
// query Ratio value for entry COc1cc(O)c2c(=O)cc(-c3ccccc3)oc2c1
87.8

====

# Test system: Mus musculus
# TEST: Body weight was determined in mouse after oral administration of 500 mg/kg on day 0
# Format: functional
MEASUREMENT TYPE: Body weight
Numbers only.

A selection of reference data follows.
{"columns": ["LINE NOTATION", "Body weight"],
 "data": [
  ["CCCCOc1cc(O)c2c(=O)cc(-c3ccccc3)oc2c1", 24.3],
  ["Cc1ccc(C(=O)Oc2cc(O)c3c(=O)cc(-c4ccccc4)oc3c2)cc1", 24.8],
  ["CCCOc1cc(OCCC)c2c(=O)cc(-c3ccccc3)oc2c1", 22.7]
]}

// query Body weight value for entry CCCCCCCCOc1cc(O)c2c(=O)cc(-c3ccccc3)oc2c1
24

====

# Test system: Mus musculus
# TEST: Body weight was determined in mouse after oral administration of 20 mg/kg on day 7
# Assay type: functional
MEASUREMENT TYPE: Body weight
Answers are plain numbers.

A selection of reference data follows.
{"columns": ["LINE NOTATION", "OBSERVED MEASUREMENT"],
 "data": [
  ["Cc1ccc(C(=O)Oc2cc(O)c3c(=O)cc(-c4ccccc4)oc3c2)cc1", 31.4],
  ["CCCOc1cc(OCCC)c2c(=O)cc(-c3ccccc3)oc2c1", 31.9],
  ["CCCCOc1cc(O)c2c(=O)cc(-c3ccccc3)oc2c1", 30.6]
]}

// query Body weight value for entry CCCCCCCCOc1cc(O)c2c(=O)cc(-c3ccccc3)oc2c1
32.1

====

# Tested on: Mus musculus
# TEST: Body weight was determined in mouse after oral administration of 5 mg/kg on day 7
# Assay type: functional
MEASUREMENT TYPE: Body weight
Numbers only.

A selection of reference data follows.
{"columns": ["LINE NOTATION", "Body weight"],
 "data": [
  ["CCCCCCCCOc1cc(O)c2c(=O)cc(-c3ccccc3)oc2c1", 30.8],
  ["CCCCOc1cc(O)c2c(=O)cc(-c3ccccc3)oc2c1", 32.7]
]}

// for each compound in input: emit Body weight
1. Cc1ccc(C(=O)Oc2cc(O)c3c(=O)cc(-c4ccccc4)oc3c2)cc1
2. CCCOc1cc(OCCC)c2c(=O)cc(-c3ccccc3)oc2c1

32.2
28.2
